tested on: wheat (winter wheat); assay: Test C pre-/postemergence herbicide test; type: in vivo, Triticum aestivum; conditions: Preemergence, 250 g ai/ha
// values below are reported Plant response rating (scale of 0 to 100), Wheat
measurement name: Plant response rating (scale of 0 to 100), Wheat

{"columns": ["molecule", "experimental value"],
 "data": [
  ["O=C1NCC(c2ccc(C(F)(F)F)cc2)C1C(=O)Nc1ccc(F)c(F)c1F (stereo not drawn) [Compound 232]", 5],
  ["O=C1NCC(c2ccc(C(F)(F)F)c(F)c2)C1C(=O)Nc1cccc(F)c1F (racemic) [Compound 247]", 0],
  ["O=C1NCC(c2cc(F)cc(F)c2)C1C(=O)Nc1ccc(F)cc1F (racemic) [Compound 278]", 0],
  ["O=C1NCC(c2ccc(F)c(C(F)(F)F)c2)C1C(=O)Nc1ccccc1C(F)(F)F (racemic) [Compound 78]", 90],
  ["O=C1NCC(c2ccc(F)c(C(F)(F)F)c2)C1C(=O)Nc1ccccc1F (racemic) [Compound 76]", 80],
  ["O=C1NCC(c2ccc(C(F)(F)F)c(F)c2)C1C(=O)Nc1ccccc1F (racemic) [Compound 246]", 30]
]}
